pIC50: −log10 of the molar value.
Literature compilation of pIC50 measurements on Tyrosine-protein kinase JAK2 (Homo sapiens).

Worked set:
[2H]C1(N2CC(CC#N)(n3cc(-c4ncnc5[nH]ccc45)cn3)C2)CCN(C(=O)c2ccnc(C(F)(F)F)c2F)CC1 ... 7.00 to 7.30
CC(C)NC(=O)c1ccc(N2CC(CC#N)(n3cc(-c4ncnc5[nH]ccc45)cn3)C2)cc1 ... 7.40 to 8.00
Cn1cc(-c2cc3nccn3c(-c3cnn(C4(CC#N)CC5(CCC5)C4)c3)n2)cn1 ... 7.00 to 8.00

Readout pIC50 for "C[C@@H](O)c1nc2cnc3ccsc3c2n1[C@H]1CCCN(C(=O)CCc2ccccc2)C1" , test system Tyrosine-protein kinase JAK2 (Homo sapiens), was < 5.70

Readout pIC50 for COC1CCN(C(=O)c2ccc(Nc3nccc(-c4cnn(C(CC#N)C5CCCC5)c4)n3)cc2)CC1 (racemic) , test system Tyrosine-protein kinase JAK2 (Homo sapiens), was > 7.00

Readout pIC50 for Cc1nc(-c2ccc(S(=O)(=O)Nc3ccc(Nc4nccc(-c5cnn(C(CC#N)C6CCCC6)c5)n4)cc3)s2)cs1 (racemic) , test system Tyrosine-protein kinase JAK2 (Homo sapiens), was > 7.00

Readout pIC50 for "Cc1ccc(NC(=O)c2cccc(C(F)(F)F)c2)cc1N1CCc2nc(Nc3ccc(S(=O)(=O)NC4CC4)cc3)ncc2C1" , test system Tyrosine-protein kinase JAK2 (Homo sapiens), was 7.27

Readout pIC50 for "CSc1nccc(-c2cnc3[nH]ccc3c2N[C@@H]2CCCN(C(=O)CC#N)C2)n1" , test system Tyrosine-protein kinase JAK2 (Homo sapiens), was 7.00 to 8.00

Readout pIC50 for "CO[C@@H](C)C(=O)N1CC[C@H](Oc2ccc(-c3ncnc(Nc4ccc(N5CCN(C6COC6)CC5)cc4)n3)cc2C#N)[C@H](F)C1" , test system Tyrosine-protein kinase JAK2 (Homo sapiens), was ≤ 6.00

Readout pIC50 for "CCC(=O)Nc1ccc(-c2ncnc(Nc3ccc(N4CCN(C5COC5)CC4)cc3)n2)cc1C#N" , test system Tyrosine-protein kinase JAK2 (Homo sapiens), was 6.96

Readout pIC50 for "CN(c1ncccc1Cn1ccc2cnc(Nc3ccc(N4CCNCC4)c(F)c3)nc21)S(C)(=O)=O" , test system Tyrosine-protein kinase JAK2 (Homo sapiens), was > 7.70

Readout pIC50 for Nc1cc2ccc1-c1ccnc(n1)Nc1ccc(OC3CCCOC3)c(c1)COCCCCNC2=O (stereo not drawn) , test system Tyrosine-protein kinase JAK2 (Homo sapiens), was 7.00 to 7.96

Readout pIC50 for CCC(C1CC(F)(F)C1)n1cc(-c2nc(-c3cnn(C[C@@H](O)CO)c3)cn3nccc23)cn1 (stereo partly drawn) , test system Tyrosine-protein kinase JAK2 (Homo sapiens), was 7.00 to 8.00

Readout pIC50 for "O=C1NCCCCOCc2cc(ccc2N2CCCC2)Nc2nccc(n2)-c2ccc1cc2F" , test system Tyrosine-protein kinase JAK2 (Homo sapiens), was 6.00 to 7.00

Readout pIC50 for "N#CCC1(n2cc(-c3ncnc4[nH]ccc34)cn2)CN(C2CCN(C(=O)c3sc4cccc(F)c4c3Cl)CC2)C1" , test system Tyrosine-protein kinase JAK2 (Homo sapiens), was ≥ 8.00

###

Literature compilation of IC50 measurements on Tyrosine-protein kinase JAK2 (Homo sapiens).

Noted for "CC(C)C[C@H](C)n1cc(-c2nc(-c3cnn(C[C@@H](O)CO)c3)cn3nccc23)cn1" : its IC50 reads 100 to 1000 nM

Noted for "CCC(=O)c1cnc(Nc2ccc(CN(C)C)cn2)cc1Nc1cccc(-c2ncc(F)cn2)c1OC" : its IC50 reads ≥ 500 nM

Noted for COc1cnc(Nc2cccc(C(=O)NC3CCOCC3)c2)nc1-c1cnn(C(CC#N)C2CC2)c1 (racemic) : its IC50 reads < 100 nM

Noted for "O=S(=O)(NC12CC(n3cnc4cnc5[nH]ccc5c43)(C1)C2)c1ccc(Cl)cc1" : its IC50 reads 259 nM

Noted for "CC[C@H](Cn1ccc2cnc(Nc3cnn(CC(=O)O[C@@H]4CCN(C)C4)c3)nc21)C(C)C" : its IC50 reads < 100 nM

Noted for "CCN1CCN(Cc2ccc(Nc3nc4ccc(Oc5ccnc(NC(=O)C6CCN(C)CC6)c5)cc4n3C)cc2C(F)(F)F)CC1" : its IC50 reads 8030 nM

Noted for Cc1cnc(Nc2ccc(N3CCOCC3)cc2)nc1-c1cnn(C(CC#N)CC2CCN(C(=O)c3ccc(F)cc3F)CC2)c1 (racemic) : its IC50 reads < 100 nM

Noted for "COc1cc(Nc2ncnc(-c3ccc(O[C@H]4CCN(C(=O)[C@H](C)O)C[C@H]4F)c(C#N)c3)n2)ccc1N1CCN(C)C[C@@H]1C" : its IC50 reads 79 nM

Noted for CCC1CN(c2ccc(C#N)nn2)CCC1Nc1nc(Nc2cc(C)n(C)n2)ncc1Cl (stereo not drawn) : its IC50 reads 0.6 nM

Noted for "Cc1cnc(NC(=O)c2ccc(C)c(-c3ccc4c(c3)[nH]c3ncncc34)c2)s1" : its IC50 reads > 1000 nM
